# Test system: 616215-338-R-J1-PDC complex spheroid growth, % test/control;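 also: spheroids exposed to agents for seven days before readout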
# assay overview: Anticancer human tumor 616215-338-R-J1-PDC patient-derived colon adenocarcinoma cell line growth inhibition [Asc]
# stated conditions: curve of first compound; second compound 0.0316 µM
# Lookup of reported IC50 keyed by entry

{"molecule": "NC1CCC(NC2CC2c2ccccc2)CC1 (stereo not given) + CNC(C)C(=O)NC1CN(S(=O)(=O)c2cccc(S(=O)(=O)N3CCC4CCC(C(=O)NC(c5ccccc5)c5ccccc5)N4C(=O)C(NC(=O)C(C)NC)C3)c2)CCC2CCC(C(=O)NC(c3ccccc3)c3ccccc3)N2C1=O", "IC50": "> 100 nM"}
{"molecule": "C#Cc1c(F)ccc2cc(O)cc(-c3ncc4c(N5CC6CCC(C5)N6)nc(OCC56CCCN5CC(F)C6)nc4c3F)c12 (stereo not given) + CNC(C)C(=O)NC1CN(S(=O)(=O)c2cccc(S(=O)(=O)N3CCC4CCC(C(=O)NC(c5ccccc5)c5ccccc5)N4C(=O)C(NC(=O)C(C)NC)C3)c2)CCC2CCC(C(=O)NC(c3ccccc3)c3ccccc3)N2C1=O", "IC50": "3760 nM"}
{"molecule": "O=C(c1cc(Cc2n[nH]c(=O)c3ccccc23)ccc1F)N1CCN(C(=O)C2CC2)CC1 + CNC(C)C(=O)NC1CN(S(=O)(=O)c2cccc(S(=O)(=O)N3CCC4CCC(C(=O)NC(c5ccccc5)c5ccccc5)N4C(=O)C(NC(=O)C(C)NC)C3)c2)CCC2CCC(C(=O)NC(c3ccccc3)c3ccccc3)N2C1=O", "IC50": "> 10000 nM"}
{"molecule": "Cc1nc(N2CCC3(CC2)COC(C)C3N)c(CO)nc1Sc1ccnc(N)c1Cl (stereo not given) + CNC(C)C(=O)NC1CN(S(=O)(=O)c2cccc(S(=O)(=O)N3CCC4CCC(C(=O)NC(c5ccccc5)c5ccccc5)N4C(=O)C(NC(=O)C(C)NC)C3)c2)CCC2CCC(C(=O)NC(c3ccccc3)c3ccccc3)N2C1=O", "IC50": "1080 nM"}
{"molecule": "CCN1CCN(Cc2ccc(Nc3ncc(F)c(-c4cc(F)c5nc(C)n(C(C)C)c5c4)n3)nc2)CC1 + CNC(C)C(=O)NC1CN(S(=O)(=O)c2cccc(S(=O)(=O)N3CCC4CCC(C(=O)NC(c5ccccc5)c5ccccc5)N4C(=O)C(NC(=O)C(C)NC)C3)c2)CCC2CCC(C(=O)NC(c3ccccc3)c3ccccc3)N2C1=O", "IC50": "586 nM"}
